Test system: UO-31 renal
Test: NCI-60 one-dose screen, 48 h (100 = growth as untreated, 0 = no growth, -100 = all killed)
Settings: 10 µM unless noted
The panel holds about 83,000 compounds, 20% with a hit somewhere; the sample as a whole holds those more often. The source made the active and inactive calls. How the source made its calls: active means growth percent below 10; inactive means the rest.
Endpoint: growth

Known results for molecules:
CCN(CC)CCCNc1nccc2ccc(Cl)cc12 : 94.7% (inactive)
CCNc1nc(S(=O)(=O)CC)nc2ccccc12 : 82.4% (inactive)
CO[C@H]1NC(=O)N(S(=O)(=O)c2ccc(Cl)cc2)[C@@H]1OC : 88% (inactive)
Cc1ccc(S(=O)(=O)NC(=O)n2cc(-c3ccncc3)c(-c3ccc(Cl)c(O)c3)n2)cc1 : 107% (inactive)
Cc1ccc(CSC(=N)N)cc1C : 87.7% (inactive)

Asked: Need growth, item `COc1ccc2cc(-c3ccc(-c4ccc(C(=N)N)cc4)s3)ccc2c1`
Given back: 89.7% (inactive)

Asked: Would you mind doing `COc1cc(-c2nn(-c3cccc(NC(=O)c4ccc(Cl)c(C(F)(F)F)c4)c3)cc2-c2ccncc2)ccc1Cl` as well?
Given back: 37.1% (inactive)

* * *

Measured growth by item
Test system: A549/ATCC NSCLC
Test: NCI-60 one-dose screen, 48 h (100 = growth as untreated, 0 = no growth, -100 = all killed)
Settings: 10 µM unless noted
Compounds without any hit were thinned out: in the full panel of roughly 83,000, 20% have a hit.
The answer is to be given in %; state only the numeric part.

Known results for compounds:
Nc1nc(=O)c2ccccc2s1 : 111
O=C1NN(C(=O)c2ccc(Cl)cc2)C(c2ccccc2)=N/C1=C\c1cn(-c2ccccc2)nc1-c1ccccc1 : 88
CCCN=C1NC(=O)/C(=C/c2nc(-c3ccc(OC)cc3)n3ccccc23)S1 : 73.3
O=c1cc/c(=N\Nc2ccccc2)c(=O)/c1=N/Nc1ccccc1 : 123
COc1ccc(-c2nc(/C=N/Nc3cc(C)nc4ccc(Br)cc34)c(C)o2)cc1 : -61

Asked: Need growth, item `O=C(NS(=O)(=O)c1ccccc1)n1cc(-c2ccncc2)c(-c2ccc(Cl)c(O)c2)n1`
Given back: 98.3

Asked: Would you mind doing CCCCCCCCC(C)OC(=O)c1nn(C(C)=O)c2ccccc12 (stereo not given) as well?
Given back: 94.1

* * *

Test system: BT-549 breast
Experiment: NCI-60 one-dose screen, 48 h
Settings: 10 µM unless noted
About 83,000 compounds went through this panel and 20% of them were active in at least one assay; those are over-represented in the sample as a whole. Active and inactive are the calls of the source. Rule for the calls: active = growth percent below 10; inactive = the rest.
Outcomes you can answer with include only these: class 1 for active, class 0 for inactive

Worked examples follow.
CN(C)c1cccc2c(S(=O)(=O)/N=C(\N)Nc3nc4ccccc4s3)cccc12 : class 0
COc1cc(-c2nn(-c3cccc(NC(=O)c4ccccc4)c3)cc2-c2ccncc2)ccc1Cl : class 1
N/C(=N\S(=O)(=O)c1ccccc1)Nc1nc2ccccc2s1 : class 0
C=C1C(=O)O[C@H]2[C@H]1CC/C(COC(=O)NCc1ccccc1OC)=C\CC[C@@]1(C)O[C@@H]21 : class 0
O=C(Nc1cccc(-n2cc(-c3ccncc3)c(-c3ccc(Cl)c(O)c3)n2)c1)Nc1cc(C(F)(F)F)cc(C(F)(F)F)c1 : class 1
COC(=O)c1cccc2c1N(C)c1c(cccc1C(=O)OC)CC2 : class 0
COc1ccc(OC)c(/C=C2\Oc3cc(OCCCN4CCCC4)ccc3C2=O)c1 : class 0
Oc1ccc(Cl)cc1-c1cc(-c2ccc(F)cc2)n[nH]1 : class 0

Consider now this further compound.
Asked: Would you mind telling me which call this test gave `O=C(/C=C/c1cc(-c2ccc3c(c2)OCO3)n[nH]1)c1ccc2c(c1)OCO2` ?
Given back: class 0

* * *

Tested on: NCI-H322M lung
Test: NCI-60 one-dose screen, 48 h (100 = growth as untreated, 0 = no growth, -100 = all killed)
Conditions: 10 µM unless noted
About 83,000 compounds went through this panel and 20% of them were active in at least one assay; those are over-represented in the sample as a whole.
# if value of growth reaches 80%, tag criterion met; if it stays below, tag criterion not met

Worked examples follow.
COc1ccc(NC(=O)c2c(Nc3ccc(OC)cc3OC)n[nH]c2N)c(OC)c1 : criterion met
O=S(=O)(NCCNc1nccc(-c2c(-c3ccc(F)cc3)nc3sccn23)n1)c1ccc(F)cc1 : criterion not met
CC(=O)Oc1csc(N(C(C)=O)c2cc(C(=O)O)cc(C(=O)O)c2)n1 : criterion met
CC(C)(C)n1cc(-c2ccnc(NCCCNS(=O)(=O)c3cccc(F)c3)c2)c(-c2cccc(O)c2)n1 : criterion not met
Cc1csc(NC(c2ccccc2)c2c(C)nc3ccccn23)n1 (stereo not given) : criterion met
O=c1c2sc3ncccc3c2nnn1-c1ccccc1 : criterion met
O=C(NCCCNc1nccc(-n2ccc3cccnc32)n1)c1c(F)cccc1F : criterion met
COc1ccc2[nH]c(=O)c(/C=N/Nc3nc(-c4ccccc4)cs3)c(O)c2c1 : criterion not met
C=C[C@@H]1C[C@H](O)Cc2c(C)cc(C)cc2N1 : criterion met
COc1cc(/C=C/C(=O)N2CCN(C(=O)/C=C/c3cc(OC)c(OC)c(OC)c3)CC2)cc(OC)c1OC : criterion met

Asked: Does `CCC(=O)Oc1ccc(/C(=C(/C)Cc2cccc(OC)c2)c2ccc(OCCN(C)C)cc2)cc1` have a reported growth of at least 80%?
Given back: criterion met

Asked: Would you mind doing `CCN(CC)c1ccc2[nH]c3c(C(N)=O)cc(=O)c(=O)c=3oc2c1` as well?
Given back: criterion not met

Asked: Would you mind doing `Cn1cnc2c(N3CCN(C(=O)OCc4ccc5c(Cl)cc(Cl)c(O)c5n4)CC3)nc(Cl)nc21` as well?
Given back: criterion not met

Asked: Would you mind doing C=C1CCC2C3(C)COC(c4ccc(N(C)C)cc4)OC3CCC2(C)C1C/C=C1/C(=O)OCC1O (stereo not given) as well?
Given back: criterion met

Asked: Would you mind doing `CC(=O)Nc1ccc(S(=O)(=O)n2ccc(-c3ccc4c(c3)CCC(C)(C)O4)n2)cc1` as well?
Given back: criterion met

Asked: Would you mind doing `COc1ccc2c(c1)cn1c3ccc(OC)cc3[nH]c(=O)c21` as well?
Given back: criterion not met

Asked: Would you mind doing `C=C[C@@H]1C[C@H](O)Cc2cc(F)ccc2N1` as well?
Given back: criterion met

Asked: Would you mind doing `COc1ccc(-c2cnoc2-c2ccc(OC)cc2O)cc1` as well?
Given back: criterion not met

Asked: Would you mind doing `CCCCNC(=O)Oc1ccc(/C(=C(\C)c2ccccc2)c2ccc(OCCN(CC)CC)cc2)cc1` as well?
Given back: criterion met

Asked: Would you mind doing `COc1ccc(-c2nc(-c3nc4cc(C)c(C)cc4[nH]3)cc3c2[nH]c2ccccc23)cc1` as well?
Given back: criterion met

* * *

Tested on: OVCAR-4 ovarian
Experiment: NCI-60 one-dose screen, 48 h
Conditions: 10 µM unless noted
Method: Growth inhibition of the OVCAR-4 human tumor cell line is measured as a screen for anti-cancer activity. Cells are grown in 96 well plates and exposed to the test compound for 48 hours. Compounds are tested at a single concentration, which is 10^-5 M for most compounds. The reported endpoint is percent growth (GI% or GIPRCNT), where numbers from 0 - 100% represent growth inhibition, and numbers from -100% - 0 represent cell death. For example, a value of 40 represents 60% growth inhibition. […]
This is part of a sample that, as a whole, favours compounds with a hit. Of some 83,000 tested, about 20% had one in any assay. Activity calls are given as the source filed them. The calls were made as follows: active = growth percent below 10; inactive = the rest.
Outcomes you can answer with include only these: active, inactive

Worked examples follow.
FC(F)(F)c1ccccc1-c1cn2c(ccc3ccccc32)n1 : inactive
COc1cc2c(cc1OCCCN1CCN(CCCn3c4ccccc4c4ccccc43)CC1)N=C[C@@H]1CCCN1C2=O : active
O=C(Nc1ccncc1)C(=O)c1cn(S(=O)(=O)c2ccc(Br)cc2)c2ccccc12 : inactive

Consider now this further compound.
Asked: Would you mind telling me which call this test gave `O=C(N/N=C/C=C\c1ccccc1)C(=O)N/N=C/C=C/c1ccccc1` ?
Given back: inactive

* * *

Measured growth by item
Tested on: SK-OV-3 ovarian
Test: NCI-60 one-dose screen, 48 h (100 = growth as untreated, 0 = no growth, -100 = all killed)
Settings: 10 µM unless noted
Compounds without any hit were thinned out: in the full panel of roughly 83,000, 20% have a hit.
The answer is to be given in %; state only the numeric part.

Known results for molecules:
Cc1ccc(S(=O)(=O)C2=C3C(=C(c4ccccc4)c4ccccc43)CN(S(=O)(=O)c3ccc(C)cc3)C2)cc1 : 92.6
COc1ccc(Nc2[nH]n3c(=O)cc(C)nc3c2C(N)=O)c(OC)c1 : 88.3
O=[N+]([O-])c1ccc(-c2cn(-c3ccccc3)c(-c3ccccc3)n2)cc1 : 79.1

Asked: Need growth, item `Cc1ccc(C(=O)C2=Cc3cc4ccccc4n3Cc3cnnn32)cc1`
Given back: 99.6

Asked: Would you mind doing `O=C(NS(=O)(=O)c1ccccc1)n1cc(-c2ccncc2)c(-c2ccc(Cl)c(O)c2)n1` as well?
Given back: 102

Asked: Would you mind doing `CCCCN(CCCC)C(=O)CC` as well?
Given back: 122

Asked: Would you mind doing `Cc1cc(N/N=C/c2nc(-c3ccccc3)oc2C)c2cc(Cl)ccc2n1` as well?
Given back: 76.4

Asked: Would you mind doing `Cc1ccc(S(=O)(=O)c2nc(-c3ccccc3)oc2S(C)(=O)=O)cc1` as well?
Given back: 76.6

Asked: Would you mind doing `O=C1CS/C(=N\Nc2cc(=O)[nH]c3ccccc23)N1c1ccccc1` as well?
Given back: 107

Asked: Would you mind doing `CCNc1nc(S(=O)(=O)CC)nc2ccccc12` as well?
Given back: 96.6

Asked: Would you mind doing `Cc1ccc(C(=O)NCCCNc2nccc(-n3ccc4cccnc43)n2)cc1` as well?
Given back: 106

Asked: Would you mind doing `Cc1ccc(S(=O)(=O)/C(=C\c2ccc(Cl)cc2)C(=O)c2ccccc2)cc1` as well?
Given back: 96.9
